These data points were gathered from patent US20220144956A1.

Biological target: human TGFßRII (antigen of the Octet experiments) (human, UniProt P37173 23-166)
Sequence (P37173 23-166): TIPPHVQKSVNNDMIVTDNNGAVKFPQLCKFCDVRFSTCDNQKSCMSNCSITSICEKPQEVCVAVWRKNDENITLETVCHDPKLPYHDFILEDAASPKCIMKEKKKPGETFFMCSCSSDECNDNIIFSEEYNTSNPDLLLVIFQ
Assay: BLI (Octet)
The entries below come with measured Kd values attached.
Respond with the bare value in pM.

Solved cases below.
INSERT INTO results (binder, datavalue) VALUES
  ('H1.22 L1 XENP34478 (antibody, V domains shown) VH: QLQVQESGPGLVKPSETLSLTCTVSGGSISNSDFSWGWIRQPPGKGLEWIGSFYYGEKTYYNPSLKSRATISIDTSKSQFSLKLSSVTAADTAVYYCPRGPTMIRGVIDSWGQGTLVTVSS VL: EIVLTQSPATLSLSPGERATLSCRASQSVRSYLAWYQQKPGQAPRLLIYDASNRATGIPARFSGSGSGTDFTLTISSLEPEDFAVYYCQQRSNWPPTFGQGTKVEIK', 1970),
  ('H1.25 L1 XENP34481 (antibody, V domains shown) VH: QLQVQESGPGLVKPSETLSLTCTVSGGSISNSYHSWGWIRQPPGKGLEWIGSFYYGEKTYYNPSLKSRATISIDTSKSQFSLKLSSVTAADTAVYYCPRGPTMIRGVIDSWGQGTLVTVSS VL: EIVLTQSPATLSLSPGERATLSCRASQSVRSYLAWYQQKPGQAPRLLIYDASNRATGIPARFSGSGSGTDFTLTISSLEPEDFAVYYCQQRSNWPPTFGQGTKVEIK', 415),
  ('H1.3 L1 XENP34459 (antibody, V domains shown) VH: QVQLQESGPGLVKPSETLSLTCTVSGGSISNSYFSWGWIRQPPGKGLEWIGSFYYGEKTYYNPSLKSRATISIDTSKSQFSLKLSSVTAADTAVYYCPRGPTMIRGVIDSWGQGTLVTVSS VL: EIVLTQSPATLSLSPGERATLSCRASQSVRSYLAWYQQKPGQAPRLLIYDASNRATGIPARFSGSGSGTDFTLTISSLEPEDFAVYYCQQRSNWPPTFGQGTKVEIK', 1),
  ('H1.10 L1 XENP34466 (antibody, V domains shown) VH: QLQVQESGPGLVKPSETLSLTCTVSGGSVSNSYFSWGWIRQPPGKGLEWIGSFYYGEKTYYNPSLKSRATISIDTSKSQFSLKLSSVTAADTAVYYCPRGPTMIRGVIDSWGQGTLVTVSS VL: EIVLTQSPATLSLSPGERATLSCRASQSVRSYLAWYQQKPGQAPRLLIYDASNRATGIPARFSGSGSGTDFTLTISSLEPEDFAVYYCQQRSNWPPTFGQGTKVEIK', 182);

Could you now consider this next binder?
Task: Identify measured Kd associated with H1.8 L1 XENP34464 (antibody, V domains shown) VH: QLQVQESGPGLVKPSETLSLTCTVSGYSISNSYFSWGWIRQPPGKGLEWIGSFYYGEKTYYNPSLKSRATISIDTSKSQFSLKLSSVTAADTAVYYCPRGPTMIRGVIDSWGQGTLVTVSS VL: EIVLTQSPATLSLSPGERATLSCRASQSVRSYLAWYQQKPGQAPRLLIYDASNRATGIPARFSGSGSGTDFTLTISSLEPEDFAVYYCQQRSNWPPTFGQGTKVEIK
Output: 238
